Tested on: HBV in 2.2.15 cells
Assay: 2.2.15 cells: viral product in cell lysates quantified via quantitative real time PCR
Format: cell-based, hepatitis B virus (HBV)
Details: Hepatitis B virus, 120 h, day 5 post treatment, 50% reduction of viral product vs no drug controls, readout (qPCR, HBsAg or HBeAg) not specified for the column
pEC50: −log10 of the molar value.
Give measured pEC50 for each item. Keep answers brief.

CC(C)(C)[C@@H]1Cn2ncc(-c3cccc4c3OC(F)(F)O4)c2-c2cc(=O)c(C(=O)O)cn21 | > 7.00
CC(C)[C@@H]1Cn2nc(C3CC3)c(-c3ccccc3)c2-c2cc(=O)c(C(=O)O)cn21 | > 7.00
CCOc1cc(F)ccc1-c1cc2n(n1)C[C@@H](C(C)(C)C)n1cc(C(=O)O)c(=O)cc1-2 | > 7.00

Quick one: give me pEC50 for each item below, same order please.
1. CC(C)[C@@H]1Cn2nc(-c3ccc(O)cc3)c(-c3ccc(O)cc3)c2-c2cc(=O)c(C(=O)O)cn21
2. CC(C)(C)[C@@H]1Cn2nc(-c3cnc(NC4CC4)nc3)cc2-c2cc(=O)c(C(=O)O)cn21
3. C[C@@H]1Cn2nc(-c3ccccc3)c(-c3ccccc3)c2-c2cc(=O)c(C(=O)O)cn21
4. CC(C)(C)[C@@H]1Cn2nc(C3CC3)c(-c3cccc4c3OC(F)(F)O4)c2-c2cc(=O)c(C(=O)O)cn21
5. CCOc1ccccc1-c1cc2n(n1)C[C@@H](C(C)(C)C)n1cc(C(=O)O)c(=O)cc1-2
6. COc1ccccc1-c1cc2n(n1)C[C@@H](C(C)(C)C)n1cc(C(=O)O)c(=O)cc1-2
7. Cc1ccc(-c2cnn3c2-c2cc(=O)c(C(=O)O)cn2[C@H](C(C)(C)C)C3)cc1
8. CC(C)(C)[C@@H]1Cn2ncc(-c3cncnc3)c2-c2cc(=O)c(C(=O)O)cn21

1: > 7.00; 2: > 7.00; 3: > 7.00; 4: > 7.00; 5: > 7.00; 6: > 7.00; 7: > 7.00; 8: < 6.00

###

Assay: Compound induced cellular toxicity in HepG2 cells, ATPlite 1Step
Format: cell-based
Conditions: human, three days exposure, 50% reduction of total ATP vs no drug controls
Give measured CC50 at 3 days for each item. Keep answers brief.

Consider the worked cases shown below.
CC(C)[C@@H]1Cn2nc(-c3ccc(F)cc3)c(-c3ccc(F)cc3)c2-c2cc(=O)c(C(=O)O)cn21 | 10 to 25 µM
CC(C)(C)[C@@H]1Cn2nc(-c3ccccc3CO)cc2-c2cc(=O)c(C(=O)O)cn21 | > 25 µM
CC(C)(C)[C@@H]1Cn2nc(-c3ccc(F)cc3F)cc2-c2cc(=O)c(C(=O)O)cn21 | > 25 µM

# input for lookup
Reported CC50 at 3 days of "CC(C)[C@@H]1Cn2nc(C3CC3)c(-c3ccc(O)cc3)c2-c2cc(=O)c(C(=O)O)cn21" : > 25 µM

###

Give measured pEC50 for each item. Keep answers brief.
System: HBV in 2.2.15 cells
Experiment: 2.2.15 cells: viral product in cell lysates quantified via quantitative real time PCR
Format: cell-based, hepatitis B virus (HBV)
Conditions: Hepatitis B virus, 120 h, day 5 post treatment, 50% reduction of viral product vs no drug controls, readout (qPCR, HBsAg or HBeAg) not specified for the column
pEC50: −log10 of the molar value.

Consider the worked cases shown below.
CC(C)(C)[C@@H]1Cn2ncc(-c3ccccc3C(F)(F)F)c2-c2cc(=O)c(C(=O)O)cn21 | < 6.00
COc1ccc(OC(F)(F)F)c(-c2cc3n(n2)C[C@@H](C(C)(C)C)n2cc(C(=O)O)c(=O)cc2-3)c1 | > 7.00
Cc1ncc(-c2cc3n(n2)C[C@@H](C(C)(C)C)n2cc(C(=O)O)c(=O)cc2-3)s1 | > 7.00
CC(C)(C)[C@@H]1Cn2nc(-c3cccc4cn[nH]c34)cc2-c2cc(=O)c(C(=O)O)cn21 | > 7.00
CC(C)(C)[C@@H]1Cn2nc(-c3cccc4c3OCCCO4)cc2-c2cc(=O)c(C(=O)O)cn21 | > 7.00

Quick one: give me pEC50 for each item below, same order please.
1. CC(C)[C@@H]1Cn2nc(-c3ccccc3F)c(-c3ccccc3F)c2-c2cc(=O)c(C(=O)O)cn21
2. CC(C)(C)[C@@H]1Cn2nnc(-c3ccc(F)cc3)c2-c2cc(=O)c(C(=O)O)cn21

> 7.00
> 7.00

# credit: patent US12264159B2
